What EC50 was measured for each of the following?
Molecular target: hSTING (Homo sapiens, UniProt Q86WV6, G230A/H232R/R293Q/R71H)
Construct: host or cells: THP1-Dual KO-IFNAR2 cells
Sequence (Q86WV6 whole entry R71H/G230A/H232R/R293Q): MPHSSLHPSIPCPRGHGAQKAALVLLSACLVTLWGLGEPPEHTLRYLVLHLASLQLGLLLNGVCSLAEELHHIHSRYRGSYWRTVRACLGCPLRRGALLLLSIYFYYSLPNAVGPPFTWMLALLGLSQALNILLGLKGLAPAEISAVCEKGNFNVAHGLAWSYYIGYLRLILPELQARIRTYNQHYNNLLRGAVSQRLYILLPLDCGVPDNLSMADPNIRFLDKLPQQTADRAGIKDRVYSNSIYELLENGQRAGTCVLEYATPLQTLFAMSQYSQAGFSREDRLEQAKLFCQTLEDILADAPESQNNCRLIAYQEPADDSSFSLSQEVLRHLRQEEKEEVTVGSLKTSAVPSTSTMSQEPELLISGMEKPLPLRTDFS
Assay: STING reporter assay (luciferase) in THP1-Dual KO-IFNAR2 cells stimulated with 2′3′cGAMP
Assay type: cell-based
Settings: 2′3′cGAMP 15 μM, 24 h, class symbols
Method: STING pathway activation by the compounds described herein was measured using THP1-Dual™ cells (KO-IFNAR2). […] 2 mL of solution A and 2 ml Solution B was mixed and incubated for 20 min at room temperature (RT). […] Luciferase reporter activity was then measured. EC50 values were calculated by using standard methods known in the art. […] Luciferase reporter activity was then measured. EC50 values were calculated by using standard methods known in the art.

molecule N#Cc1cc(NC(=O)Nc2c[nH]c3cccnc23)ccc1C1CCC(F)(F)CC1 [Compound 148] , EC50 observed: 200 to 1000 nM

molecule Cc1cc(NC(=O)Nc2c[nH]c3ncc(F)cc23)cnc1N1CC(F)(F)C1 [Compound 171] , EC50 observed: 200 to 1000 nM

molecule COc1ccc2[nH]cc(NC(=O)Nc3ccc(C4CCC(F)(F)CC4)nc3)c2n1 [Compound 213] , EC50 observed: 200 to 1000 nM

molecule O=C(Nc1cnc(N2CCN(CCC(F)(F)F)CC2)c(Cl)c1)Nc1c[nH]c2cccnc12 [Compound 225] , EC50 observed: 1000 to 5000 nM

molecule CN(C)c1ccc2[nH]cc(NC(=O)Nc3cnc(N4CCC(F)(F)CC4)c(F)c3)c2n1 [Compound 175] , EC50 observed: 5000 to 100000 nM

molecule O=C(Nc1ccc(C2CC(F)(F)C2)nc1)Nc1c[nH]c2ncc(F)cc12 [Compound 161] , EC50 observed: 1000 to 5000 nM

molecule O=C(Nc1cnc(C2CCC(F)(F)CC2)c(F)c1)Nc1c[nH]c2cccnc12 [Compound 234] , EC50 observed: 200 to 1000 nM

molecule COc1ccc2[nH]cc(NC(=O)Nc3cnc(N4CCC(F)(F)CC4)c(F)c3)c2n1 [Compound 187] , EC50 observed: 200 to 1000 nM

----------
target: hSTING (Homo sapiens, UniProt Q86WV6, G230A/H232R/R293Q/R71H); construct: host or cells: THP1-Dual KO-IFNAR2 cells; assay: STING reporter assay (luciferase) in THP1-Dual KO-IFNAR2 cells stimulated with 2′3′cGAMP; assay type: cell-based; conditions: 2′3′cGAMP 15 μM, 24 h, class symbols
What EC50 was measured for each of the following?

compound Cc1cc(NC(=O)Nc2c[nH]c3cccnc23)cnc1N1CCC(F)(F)CC1 , EC50 observed: 1 to 5 µM

compound O=C(Nc1cnc(C2CC(F)(F)C2)c(Cl)c1)Nc1c[nH]c2cccnc12 , EC50 observed: 0.2 to 1 µM

compound O=C(Nc1ccc(C2CCCC2)nc1)Nc1c[nH]c2ncc(F)cc12 , EC50 observed: 0.2 to 1 µM

compound O=C(Nc1ccc(C2CCC(F)(F)CC2)nc1)Nc1cn(Cc2ccccc2)c2ncc(F)cc12 , EC50 observed: 5 to 100 µM

----------
biological target: hSTING (Homo sapiens, UniProt Q86WV6, G230A/H232R/R293Q/R71H); construct: host or cells: THP1-Dual KO-IFNAR2 cells; assay: STING reporter assay (luciferase) in THP1-Dual KO-IFNAR2 cells stimulated with 2′3′cGAMP; assay type: cell-based; details: 2′3′cGAMP 15 μM, 24 h, class symbols
pEC50: −log10 of the molar value.
valueKind: pEC50

compound Cc1cnc2[nH]cc(NC(=O)Nc3ccc(C4CCC(F)(F)CC4)nc3)c2c1 [Compound 106] , pEC50 observed: 5.30 to 6.00

compound COc1cc(NC(=O)Nc2c[nH]c3ncc(F)cc23)cnc1N1CCC(F)(F)CC1 [Compound 165] , pEC50 observed: 6.00 to 6.70

compound COc1ccc2[nH]cc(NC(=O)Nc3cnc(N4CC(F)(F)C4)c(Cl)c3)c2n1 [Compound 231] , pEC50 observed: 6.00 to 6.70

compound O=C(Nc1cc(Cl)c(N2CCC(F)(F)CC2)cn1)Nc1c[nH]c2cccnc12 [Compound 235] , pEC50 observed: 5.30 to 6.00

compound O=C(Nc1cnc(N2CCC(F)(F)CC2)c(Cl)c1)Nc1c[nH]c2cc(Br)cnc12 [Compound 240] , pEC50 observed: 4.00 to 5.30

compound O=C(Nc1ccc(C2CC(F)(F)C2)c(Cl)c1)Nc1c[nH]c2cccnc12 [Compound 219] , pEC50 observed: 6.00 to 6.70

compound COc1ccc2[nH]cc(NC(=O)Nc3cnc(C4CC(F)(F)C4)c(Cl)c3)c2n1 [Compound 243] , pEC50 observed: 6.00 to 6.70

compound CC1(C)CN(c2ncc(NC(=O)Nc3c[nH]c4cccnc34)cc2Cl)CCO1 [Compound 241] , pEC50 observed: 4.00 to 5.30

compound COc1ccc2[nH]cc(NC(=O)Nc3ccc(C4CCC(F)(F)CC4)c(C#N)c3)c2n1 [Compound 150] , pEC50 observed: 6.00 to 6.70

compound O=C(Nc1cnc(N2CCCCC2)c(Cl)c1)Nc1c[nH]c2ncc(F)cc12 [Compound 196] , pEC50 observed: 6.00 to 6.70

compound O=C(Nc1cnc(C2CCC(F)(F)CC2)c(Cl)c1)Nc1c[nH]c2cccnc12 [Compound 142] , pEC50 observed: 6.00 to 6.70

compound COC1CCN(c2ncc(NC(=O)Nc3c[nH]c4ncc(F)cc34)cc2C)CC1 [Compound 194] , pEC50 observed: 5.30 to 6.00

compound N#Cc1cc(NC(=O)Nc2c[nH]c3ncc(F)cc23)cnc1C1CCC(F)(F)CC1 [Compound 155] , pEC50 observed: 6.70 to 7.40

compound COc1cc(NC(=O)Nc2c[nH]c3ncc(F)cc23)cnc1C1CCC(F)(F)CC1 [Compound 164] , pEC50 observed: 6.00 to 6.70

compound O=C(Nc1cc(Cl)nc(C2CCC(F)(F)CC2)c1)Nc1c[nH]c2cccnc12 [Compound 217] , pEC50 observed: 5.30 to 6.00

compound O=C(Nc1cnc(N2CCC(F)(F)CC2)c(CCO)c1)Nc1c[nH]c2ncc(F)cc12 [Compound 147] , pEC50 observed: 4.00 to 5.30

compound O=C(Nc1cnc(N2CCC3(CCCCO3)CC2)c(Cl)c1)Nc1c[nH]c2cccnc12 [Compound 215] , pEC50 observed: 5.30 to 6.00

compound COc1ccc2[nH]cc(NC(=O)Nc3cnc(N4CCC(F)(F)CC4)c(Cl)c3)c2n1 [Compound 141] , pEC50 observed: 6.00 to 6.70

compound COc1ccc2[nH]cc(NC(=O)Nc3ccc(C4CC(F)(F)C4)c(F)c3)c2n1 [Compound 238] , pEC50 observed: 6.00 to 6.70

compound O=C(Nc1ccc(C2CC(F)(F)C2)c(F)c1)Nc1c[nH]c2cccnc12 [Compound 239] , pEC50 observed: 6.00 to 6.70

compound N#Cc1cc(NC(=O)Nc2c[nH]c3ncc(Cl)cc23)cnc1C1CCC(F)(F)CC1 [Compound 151] , pEC50 observed: 6.00 to 6.70

compound O=C(Nc1cnc(C2CCN(CC(F)(F)F)CC2)c(Cl)c1)Nc1c[nH]c2cccnc12 [Compound 222] , pEC50 observed: 6.00 to 6.70

----------
What EC50 was measured for each of the following?
target: hSTING (Homo sapiens, UniProt Q86WV6, G230A/H232R/R293Q/R71H); construct: host or cells: THP1-Dual KO-IFNAR2 cells; experiment: STING reporter assay (luciferase) in THP1-Dual KO-IFNAR2 cells stimulated with 2′3′cGAMP; type: cell-based; conditions: 2′3′cGAMP 15 μM, 24 h, class symbols

compound COc1ccc2[nH]cc(NC(=O)Nc3cnc(C4CCC(F)(F)CC4)c(C)c3)c2n1 [Compound 169] , EC50 observed: 200 to 1000 nM

compound O=C(Nc1cnc(N2CCC(F)(F)CC2)c(F)c1)Nc1c[nH]c2cccnc12 [Compound 230] , EC50 observed: 200 to 1000 nM

compound Cc1cc(NC(=O)Nc2c[nH]c3c(F)cncc23)cnc1N1CCC(F)(F)CC1 [Compound 172] , EC50 observed: 1000 to 5000 nM

compound Cc1cc(NC(=O)Nc2c[nH]c3ncc(F)cc23)cnc1N1CCC(F)(F)CC1 [Compound 198] , EC50 observed: 40 to 200 nM
